# systemUnderTest: KRAS G12C (Homo sapiens (Human), UniProt P01116, C118A/G12C)
# Sequence (P01116 other isoform, or with tags, fused parts or gaps G12C/C118A): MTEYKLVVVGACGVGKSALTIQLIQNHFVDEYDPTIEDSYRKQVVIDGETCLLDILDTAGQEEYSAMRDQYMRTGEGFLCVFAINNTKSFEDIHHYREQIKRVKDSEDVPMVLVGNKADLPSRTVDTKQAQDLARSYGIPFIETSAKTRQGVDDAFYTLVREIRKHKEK
# assayInfo: 2 h coupled exchange assay
# Assay type: biochemical
# experimentalParameters: Avg 2 h Coupled exchange IC50, 2 h compound pre-incubation, SOS-mediated nucleotide exchange
# Experimental: The term “2 h coupled exchange assay” or “20 h coupled exchange assay” as used herein refers to the assay described in the Section entitled “BIOLOGICAL EVALUATION.”
measure: IC50 (nM)

{"compound": "C=CC(=O)N1CC2(CCN(c3cc4c(c(-c5cc(O)cc6ccccc56)c3C#N)OCCC4)C2)C1 (single isomer, unassigned) [Example 2-54]", "valueUnit": "nM", "measurement": 28}

a: C=CC(=O)N1CC2(CCN(c3cc4c(c(-c5c(C)ccc6cnn(C)c56)c3C#N)OCCC4)C2)C1
b: C=CC(=O)N1CC2(CCN(c3nc4c(c(-c5c(C)c(Cl)cc6cnn(C)c56)c3C)CCN(C(C)C)C4)C2)C1 (single isomer, unassigned) [Example 12-23]
Response body: label of entry with the larger IC50; valid values a , b . Please indicate the selected item by its label. b

###

# systemUnderTest: KRAS G12C (Homo sapiens (Human), UniProt P01116, C118A/G12C)
# assayInfo: 2 h coupled exchange assay
# Format: biochemical
# experimentalParameters: Avg 2 h Coupled exchange IC50, 2 h compound pre-incubation, SOS-mediated nucleotide exchange
# Experimental: The term “2 h coupled exchange assay” or “20 h coupled exchange assay” as used herein refers to the assay described in the Section entitled “BIOLOGICAL EVALUATION.”
measure: IC50 (nM)

{"compound": "C=CC(=O)N1CC2(CCN(c3nc4c(c(-c5c(C)ccc6cnn(C)c56)c3Cl)COC(C)(C)C4)C2)C1 [Example 2-86]", "IC50 [nM]": 6150}
{"compound": "C=CC(=O)N1CC2(CCN(c3nc4c(c(-c5ccc(Cl)c6cc[nH]c56)c3C#N)COC(C)(C)C4)C2)C1", "IC50 [nM]": 213}
{"compound": "C=CC(=O)N1CC2(CCN(c3nc4c(c(-c5c(C)c(C)cc6cnn(C)c56)c3C)[C@@H]3CC[C@H]4C3)C2)C1 (atropisomer, axis not shown; (M))", "IC50 [nM]": 3}
{"compound": "C=CC(=O)N1CC2(CCN(c3nc4c(c(-c5c(C)c(Cl)cc6[nH]ncc56)c3Cl)COC(C)(C)C4)C2)C1 (single isomer, unassigned) [Example 2-109]", "IC50 [nM]": 23}
{"compound": "C=CC(=O)N1CC2(CCN(c3nc4c(c(-c5cccc6cc(O)ccc56)c3C)CCC(C)(C)C4)C2)C1 [Example 2-13]", "IC50 [nM]": 150}

A: C=CC(=O)N1CC2(CCN(c3nc4c(c(-c5cc(O)cc6nccnc56)c3C#N)C[C@H]3C[C@@H]4C3(C)C)C2)C1 (single isomer, unassigned) [Example 12-38]
B: Cc1ccc2[nH]ncc2c1-c1c(C#N)c(N2CCC3(CN(C(=O)/C=C/C(F)(F)F)C3)C2)nc2c1CCC(C)(C)C2
Dear colleague, could you let me know whether A or B has the lower recorded IC50? Thanks. Please indicate the selected item by its label. A
(A: 137 nM, B: 229 nM)

1: C=CC(=O)N1CC2(CCN(c3nc4c(c(-c5cccc6cnn(C)c56)c3C#N)C[C@H]3C[C@@H]4C3(C)C)C2)C1
2: C=CC(=O)N1CC2(CCN(c3cc4c(c(-c5c(C)ccc6cnn(C)c56)c3C#N)CCC(C)(C)C4)C2)C1
3: C=CC(=O)N1CC2(CCN(c3nc4c(c(-c5c(C)ccc6cnn(C)c56)c3C#N)CO[C@H](C3CC3)C4)C2)C1 (single isomer, unassigned) [Example 13-121]
4: C=CC(=O)N1CC2(CCN(c3nc4c(c(-c5c(C)ccc6cnn(C)c56)c3C#N)CC(C)(C)C4)C2)C1 (single isomer, unassigned) [Example 13-18]
Sort by IC50, descending. // rank by listing labels in the order requested 3, 1, 2, 4

a: C=CC(=O)N1CC2(CCN(c3nc4c(c(-c5c(C)cc(F)c6[nH]ncc56)c3C#N)CCC(C)(C)C4)C2)C1
b: C=CC(=O)N1CC2(CCN(c3nc4c(c(-c5cc(S(N)(=O)=O)ccc5C)c3C#N)CCC(C)(C)C4)C2)C1
Dear colleague, could you let me know whether a or b has the lower recorded IC50? Thanks. Please indicate the selected item by its label. a

###

# systemUnderTest: KRAS G12C (Homo sapiens (Human), UniProt P01116, C118A/G12C)
# assayInfo: 2 h coupled exchange assay
# Type: biochemical
# experimentalParameters: Avg 2 h Coupled exchange IC50, 2 h compound pre-incubation
pIC50: −log10 of the molar value.
measure: pIC50

{"compound": "C=CC(=O)N1CC2(CCN(c3nc4ccccc4c(-c4c(C)c(Cl)cc5cnn(C)c45)c3C#N)C2)C1", "systemUnderTest": "KRAS G12C (Homo sapiens (Human), UniProt P01116, C118A/G12C)", "measure": "pIC50", "measurement": 6.83}
{"compound": "C=CC(=O)N1CC2(CCN(c3nc4c(c(-c5ccc(F)c6sc(N)nc56)c3C#N)COC(C)(C)C4)C2)C1 [Example 14-56]", "systemUnderTest": "KRAS G12C (Homo sapiens (Human), UniProt P01116, C118A/G12C)", "measure": "pIC50", "measurement": 7.03}
{"compound": "C=CC(=O)N1CC2(CCN(c3nc4c(c(-c5c(F)ccc6[nH]ncc56)c3C)CCN(C(C)C)C4)C2)C1", "systemUnderTest": "KRAS G12C (Homo sapiens (Human), UniProt P01116, C118A/G12C)", "measure": "pIC50", "measurement": 6.14}

a: C=CC(=O)N1CC2(CCN(c3nc4c(c(-c5cc(O)ccc5Cl)c3C#N)CCN(C[C@@H]3CCCN3C)C4)C2)C1
b: C=CC(=O)N1CC2(CCN(c3nc4cc(-c5ccnn5C)ccc4c(-c4ccccc4Cl)c3C#N)C2C)C1 (stereo not shown)
c: C=CC(=O)N1CC2(CCN(c3nc4cc(-c5scnc5C)ccc4c(-c4ccccc4C)c3C#N)C2)C1 (single isomer, unassigned) [Example 19-12]
d: C=CC(=O)N1CC2(CCN(c3nc4cc(-c5scnc5C)c(C)cc4c(-c4ccccc4Cl)c3C#N)C2)C1
In this exercise, place the 4 compounds in ascending sequence of their recorded pIC50. // rank by listing labels in the order requested d, a, b, c

###

# systemUnderTest: KRAS G12C (Homo sapiens (Human), UniProt P01116, C118A/G12C)
# assayInfo: 2 h coupled exchange assay
# Format: biochemical
# experimentalParameters: Avg 2 h Coupled exchange IC50, 2 h compound pre-incubation
measure: IC50 (nM)

Example entries and their recorded answers appear below.
{"compound": "C=CC(=O)N1CC2(CCN(c3nc4cc(-c5ccnn5C)ccc4c(-c4c(C)ccc5[nH]ncc45)c3C#N)C2)C1", "measurement": 31}
{"compound": "C=CC(=O)N1CC2(CCN(c3nc4cc(C5CC5)ccc4c(-c4c(C)ccc5[nH]ncc45)c3C#N)C2)C1", "measurement": 130}
{"compound": "C=CC(=O)N1CC2(CCN(c3nc4c(c(-c5cc(O)ccc5Cl)c3C#N)CCN(C(C)C)C4)C2)C1", "measurement": 264}
{"compound": "C=CC(=O)N1CC2(CCN(c3nc4c(c(-c5cc(O)ccc5F)c3C#N)CCN(C(C)C)C4)C2)C1", "measurement": 220}
{"compound": "C=CC(=O)N1CC2(CCN(c3nc4c(c(-c5ccccc5C)c3C#N)CCC(c3scnc3C)=C4)C2)C1 [Example 23-11]", "measurement": 53}
{"compound": "C=CC(=O)N1CC2(CCN(c3nc4c(c(-c5ccccc5C)c3C#N)CC[C@@H](c3scnc3C)C4)C2)C1 (single isomer, unassigned) [Example 23-3]", "measurement": 107}
{"compound": "C=CC(=O)N1CC2(CCN(c3nc4c(c(-c5cc(O)ccc5C)c3C)COC(C)(C)C4)C2)C1 (single isomer, unassigned) [Example 14-31]", "measurement": 106}
{"compound": "C=CC(=O)N1CC2(CCN(c3nc4c(c(-c5ccc(F)cc5F)c3C#N)CCN(C3CCCN(C)C3)C4)C2)C1 (stereo not drawn)", "measurement": 355}
{"compound": "C=CC(=O)N1CC2(CCN(c3nc4cc(-n5ccnc5C)ccc4c(-c4ccccc4Cl)c3C)[C@H]2C)C1 (single isomer, unassigned) [Example 15-6]", "measurement": 3580}
{"compound": "C=CC(=O)N1CC2(CCN(c3nc4c(c(-c5ccccc5F)c3C#N)CCC(c3scnc3CO)=C4)C2)C1", "measurement": 128}

1: C=CC(=O)N1CC2(CCN(c3nc4c(c(-c5cc(O)ccc5F)c3C#N)CCC(c3scnc3C)=C4)C2)C1
2: C=CC(=O)N1CC2(CCN(c3nc4c(c(-c5cccc(OC)c5F)c3C#N)CCC(c3scnc3C)=C4)C2)C1
Response body: label of entry with the larger IC50; valid values 1 , 2 . Please indicate the selected item by its label. 2
(2: 687 nM, 1: 44 nM)
